# Tested on: HT-29
# methodDescription: Cellular assay (checkpoint abrogation), phospho-Histone H3
# Format: cell-based
# assayConditions: Homo sapiens; HT-29 cells, 20 nM SN-38 for 16 h, then 300 nM nocodazole plus compound for 24 h; phospho-Histone H3 levels; read-out: EC50 in the assay described in EXAMPLE ii
pEC50: −log10 of the molar value.
measurementLabel: pEC50

The recorded pEC50 for entry `N#Cc1cc2c(cn1)[nH]c1ncc(-c3ccc(CO)cc3)cc12` equals > 5.00

The recorded pEC50 for entry `Cn1nncc1-c1cc2c(cn1)[nH]c1ncc(-c3ccc(CN4CCCCC4)cc3)cc12` equals > 5.00

The recorded pEC50 for entry `CC(C)Oc1ccc(-c2cnc3[nH]c4cnc(C#N)cc4c3c2)cc1` equals > 5.00
